Tested on: Fibroblast
Test: Multiplex assay against human fibroblast
Format: toxicity, cell-based
Conditions: 48 h, 1 µM, compound concentration 1 uM, replicate 2
Labelling: Population Tubulin-Different-Phenotype (%) reported below 40% becomes 1.0; at or above becomes 0.0.

{"columns": ["compound", "discrete.label"],
 "data": [
  ["CN1CCC[C@@H]1CCO[C@](C)(c1ccccc1)c1ccc(Cl)cc1.O=C(O)/C=C/C(=O)O [CLEMASTINE FUMARATE]", 0.0],
  ["CN1CCN(c2ccc(OC(F)(F)F)c(Nc3ncc4c(n3)-c3c(c(C(N)=O)nn3CCO)CC4)c2)CC1", 1.0],
  ["Cc1nc(-c2ccc(-c3ccc(C(=O)N4CCc5cc6c(cc54)C4(CCN(C)CC4)CO6)cc3)c(C)c2)no1", 0.0],
  ["Cc1csc2c(N[C@@H](C)CN3CCN(S(=O)(=O)c4ccc(Cl)c(Cl)c4)CC3)ncnc12", 0.0],
  ["CC[C@H](C)C(=O)O[C@H]1C[C@@H](C)C=C2C=C[C@H](C)[C@H](CC[C@@H]3C[C@@H](O)CC(=O)O3)[C@H]21", 1.0],
  ["Cc1c(-c2ccc(O)cc2)n(Cc2ccc(OCCN3CCCCCC3)cc2)c2ccc(O)cc12", 0.0],
  ["CN(C)C(=O)/C(C#N)=C/c1ccc(-c2nc3cnc4[nH]ccc4c3n2C2CCCCC2)o1", 1.0],
  ["c1cn2cc(-c3ccc4cn[nH]c4c3)nc(Nc3ccc(N4CCOCC4)cc3)c2n1", 0.0],
  ["Cc1cc(C)cc(-c2cnc3cc(Cl)c(-c4cccc(O)c4)cc3c2OCCCN)c1", 0.0],
  ["CN(C)C(=O)N[C@H]1CC[C@H](CCN2CCN(c3cccc(Cl)c3Cl)CC2)CC1.Cl [CARIPRAZINE HYDROCHLORIDE]", 1.0],
  ["CNc1nc(NCc2ccc(NS(C)(=O)=O)cc2Cl)cc(-c2ccccn2)n1", 1.0],
  ["Cc1[nH]c(/C=C2\\C(=O)Nc3ccc(S(=O)(=O)N(C)c4cccc(Cl)c4)cc32)c(C)c1C(=O)N1CCN(C)CC1", 0.0],
  ["CN(C)CC#Cc1ccc(OCCCc2sc(N3CCc4cccc(C(=O)Nc5nc6ccccc6s5)c4C3)nc2C(=O)O)c(F)c1", 0.0],
  ["COc1cc(-n2cnc3cc(-c4ccc(Cl)cc4)sc3c2=O)ccc1OCCN1CCCC1", 0.0],
  ["CN1CCCC(n2nc(Cc3ccc(Cl)cc3)c3ccccc3c2=O)CC1.Cl (centres undefined) [AZELASTINE HYDROCHLORIDE]", 0.0],
  ["CN1CCN(CCOc2cc(OC3CCOCC3)c3c(Nc4c(Cl)ccc5c4OCO5)ncnc3c2)CC1", 0.0]
]}
